Cited source: patent US20260265403A1

- TARGET ENTITY: T1, Human CD24 (human, UniProt P25063 27-59, limits assumed)
- T1 chain (looked up): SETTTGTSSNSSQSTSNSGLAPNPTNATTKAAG
- ASSAY REMARKS: affinity ranking; antibody as ligand, Human CD24 as analyte
MEASURE: pKd
In plain terms, pKd is the concentration in mol/L turned into minus its base-10 logarithm.

BINDER	pKd
VH1 + VL2 (humanized 4451) (antibody, V domains shown, IgG expressed in HEK293) VH: QVQLVQSGAEVKKPGASVKVSCKASGYDFTGYHMNWVRQAPGQGLEWMGEINPITSDKTFNQKFKSRVTMTRDTSISTAYMELSRLRSDDTAVYYCARRDYGTSLDYWGQGTTVTVSS VL: DIQLTQSPSFLSASVGDRVTITCRASKSISKYLAWYQQKPGKAPRLLIYAGSTLHSGVPSRFRGSGSGTEFTLTISSLQPEDFATYYCQQHNEYPITFGQGTKLEIK	7.86
VH1 + VL1 (humanized 4451) (antibody, V domains shown, IgG expressed in HEK293) VH: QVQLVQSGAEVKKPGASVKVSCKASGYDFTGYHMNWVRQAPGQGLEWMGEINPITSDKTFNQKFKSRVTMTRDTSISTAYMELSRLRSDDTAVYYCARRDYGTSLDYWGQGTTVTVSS VL: DIQLTQSPSFLSASVGDRVTITCRASKSISKYLAWYQQKPGKAPKLLIYAGSTLHSGVPSRFSGSGSGTEFTLTISSLQPEDFATYYCQQHNEYPITFGQGTKLEIK	7.75

Task: # query: pKd of entry VH2 + VL1 (humanized 4451) (antibody, V domains shown, IgG expressed in HEK293) VH: QVQLVQSGAEVKKPGASVKVSCKASGYDFTGYHMNWVRQAPGQGLEWIGEINPITSDKTFNQKFKSRVTMTVDTSISTAYMELSRLRSDDTAVYYCARRDYGTSLDYWGQGTTVTVSS VL: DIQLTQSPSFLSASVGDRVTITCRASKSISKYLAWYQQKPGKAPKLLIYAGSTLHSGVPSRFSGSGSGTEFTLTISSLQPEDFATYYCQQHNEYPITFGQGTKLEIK
Output: 7.68
